meta.source: PubChem BioAssay (EPA / NIEHS)

read-out: Protein phosphatase 2A (PPP2R4), PTPA (gene 5524); experiment: LTEA_HepaRG_PPP2R4: Life Technologies and Expression Analysis (LTEA) Assay for Protein phosphatase 2A (PPP2R4) using HepaRG (AID 2283522); conditions: mRNA level, 48 h; actives raise or lower the signal
Active and inactive are the calls of the source. Rule for the calls: active = hit-call score of the fitted dose curve at least 0.9, where 1 is the maximum; inactive = score below 0.9.
endpoint-label: outcome

Study these solved cases before continuing.
- molecule: "CCCCOC(=O)[C@@H](C)Oc1ccc(Oc2ccc(C(F)(F)F)cn2)cc1"
  endpoint-label: "outcome"
  result: "inactive"
- molecule: "N#CSCSc1nc2ccccc2s1"
  endpoint-label: "outcome"
  result: "inactive"
- molecule: "CC(C)(c1ccc(O)cc1)c1ccc(O)cc1"
  endpoint-label: "outcome"
  result: "inactive"
- molecule: "CCN(CC)C(=O)c1cccc(C)c1"
  endpoint-label: "outcome"
  result: "inactive"

Form: compound = CN(C)C(=O)Nc1ccc(Cl)c(Cl)c1 ; outcome = inactive

====

read-out: solute carrier (SLC22A1), SLC22A1 (gene 6580); test: LTEA_HepaRG_SLC22A1: Life Technologies and Expression Analysis (LTEA) Assay for solute carrier (SLC22A1) using HepaRG (AID 2283524); conditions: mRNA level, 48 h; actives raise or lower the signal;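 for AC50: differentiated human HepaRG liver cells in serum-free induction medium; TaqMan qRT-PCR normalized to ACTB GAPDH and POLR2A housekeeping genes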
Active and inactive are the calls of the source. The calls were made as follows: active = hit-call score of the fitted dose curve at least 0.9, where 1 is the maximum; inactive = score below 0.9.
endpoint-label: AC50

Worked set:
- compound: "CCOC(=O)COc1cc(-n2ncc(C(F)(F)F)c(C)c2=O)c(F)cc1Cl"
  result: "inactive"
- compound: "OB(O)O"
  result: "inactive"
- compound: "CCNc1nc(N)nc(Cl)n1"
  result: "inactive"
- compound: "Cc1nn(C)c(Oc2ccccc2)c1C=NOCc1ccc(C(=O)OC(C)(C)C)cc1"
  result: "12.3 µM (active)"
- compound: "N#CSCSc1nc2ccccc2s1"
  result: "76.7 µM (active)"
- compound: "c1ccc2[nH]c(-c3cscn3)nc2c1"
  result: "inactive"
- compound: "CCC(C)OC(=O)N1CCCCC1CCO (centres undefined)"
  result: "inactive"
- compound: "CC(C)(c1ccc(O)cc1)c1ccc(O)cc1"
  result: "inactive"

Next compound, please.
get_value(item= O=C(O)c1ccccc1 , readout=AC50) returns inactive

====

assay: CEETOX_H295R_OHPREG: CeeTox H295R High-throughput Steroidogenesis Assay for OH-Pregnenolone (OHPREG) (AID 2283434); conditions: actives raise or lower the signal
The source made the active and inactive calls. The calls were made as follows: active = hit-call score of the fitted dose curve at least 0.9, where 1 is the maximum; inactive = score below 0.9.
The reply should be one of these categories: active, inactive

- compound: "O=C(Nc1ccc([N+](=O)[O-])cc1Cl)c1cc(Cl)ccc1O"
  assigned-label: "inactive"
- compound: "CCN(Cc1c(F)cccc1Cl)c1c([N+](=O)[O-])cc(C(F)(F)F)cc1[N+](=O)[O-]"
  assigned-label: "inactive"
- compound: "CCOC(=O)c1ccc(O)cc1"
  assigned-label: "inactive"
- compound: "CC(C)(C)[C@@H](O)[C@@H](Cc1ccc(Cl)cc1)n1cncn1"
  assigned-label: "inactive"

**Query** For c1ccc2[nH]c(-c3cscn3)nc2c1 , which call appears in the assay record?
**Result** inactive

**Query** Tell me the recorded outcome of this test for CC1(C)C(C=C(Cl)Cl)C1C(=O)OCc1cccc(Oc2ccccc2)c1 (centres undefined) .
**Result** inactive

**Query** State the result this test recorded for C#CCOC(=O)[C@@H](C)Oc1ccc(Oc2ncc(Cl)cc2F)cc1 .
**Result** inactive

**Query** GET /call?item= C#C[C@]1(O)CC[C@H]2[C@@H]3CCC4=CC(=O)CC[C@@H]4[C@H]3CC[C@@]21CC returns the recorded outcome of this test.
**Result** active

**Query** Dear all, I need the recorded test outcome for Oc1ccc(C(c2ccc(O)cc2)C(Cl)(Cl)Cl)cc1 , thank you.
**Result** active
